test system: 12 GNB strains; type: cell-based; conditions: OD measurements, mean of 12 GNB strains
Where a SMILES comes first, the peptide text is derived from it. [ ]: non-standard residue; d: D form. The star is where a group is joined. Myristoyl = CCCCCCCCCCCCCC(=O)*; 12Ado = NCCCCCCCCCCCC(=O)O; Orn = NCCC[C@H](N)C(=O)O
MEASUREMENT KIND: MIC, LB medium

| COMPOUND | MEASUREMENT KIND | ENDPOINT RESULT |
| --- | --- | --- |
| NCCC[C@H](NC(=O)CCCCCCCCCCCNC(=O)[C@H](CCCN)NC(=O)[C@@H](N)CCCN)C(N)=O [OOc12O] (H-[Orn][Orn][12Ado][Orn]-NH2) | MIC, LB medium | >50 µM |
| CCCCC=CCCCCCCCC(=O)N[C@@H](CCCN)C(=O)N[C@@H](CCCN)C(=O)NCCCCCC(=O)N[C@@H](CCCN)C(N)=O | MIC, LB medium | >50 µM |
| CCCCCCCCCCCCCC(=O)N[C@@H](CCCN)C(=O)N[C@@H](CCCN)C(=O)NCCCCCCCCCCCC(=O)N[C@@H](CCCN)C(N)=O [C14OOc12O] (Myristoyl-[Orn][Orn][12Ado][Orn]-NH2) | MIC, LB medium | 3 to 6 µM |
